# procedure text: S16 Schwann cell PMP22 intronic element firefly luciferase assay (AID 624032); also: nearly all actives have a fitted effect of over 30% in size; also: potency is read from the fitted curve at half-maximal effect
# study conditions: S16 rat Schwann cells, PMP22 element FLuc, 24 h; series mostly up to 57.5 µM
Inconclusive results are not listed. Calls of active or inactive are those of the source. Calls follow the shape of the dose curve; as a rule, active = well fitted inhibition curve with a large enough effect; inconclusive = small, poorly fitted or top-dose-only effect; inactive = no such curve, though single readings can be large or run the other way.
parameter measured: Potency

Worked examples follow.
molecule: COc1ccc2cc1Oc1cc3c(cc1OC)CC[N+](C)(C)C3Cc1ccc(cc1)Oc1c(OC)c(OC)cc3c1C(C2)[N+](C)(C)CC3 (stereo unspecified)
Potency: inactive

molecule: CC1OC(OC2CCC3(C)C(CCC4C3CC(O)C3(C)C(C5=CC(=O)OC5)CCC43O)C2)CC(O)C1OC1CC(O)C(OC2CC(O)C(OC3OC(CO)C(O)C(O)C3O)C(C)O2)C(C)O1 (stereo unspecified)
Potency: inactive

molecule: C=C1C(n2cnc3c(=O)[nH]c(N)nc32)C[C@H](O)[C@H]1CO (stereo partly specified)
Potency: inactive

molecule: CCC(C(=O)O)C1OC(C(C)C(O)C(C)C(=O)C(CC)C2OC3(C=CC(O)C4(CCC(C)(C5CCC(O)(CC)C(C)O5)O4)O3)C(C)CC2C)C(C)CC1C (stereo unspecified)
Potency: 102 nM (active)

molecule: O=C(O)C(O)c1ccccc1 (stereo unspecified)
Potency: inactive

Okay, now this molecule:
-- ask Which Potency value belongs to "CO[C@H]1C[C@@H]2CC[C@@H](C)[C@@](O)(O2)C(=O)C(=O)N2CCCC[C@H]2C(=O)O[C@H]([C@H](C)C[C@@H]2CC[C@@H](O)[C@H](OC)C2)CC(=O)[C@H](C)/C=C(\C)[C@@H](O)[C@@H](OC)C(=O)[C@H](C)C[C@H](C)/C=C/C=C/C=C/1C" ?
-- reply inactive
